Tested on: gastrointestinal transit of a charcoal meal in the rat
ASSAY: Charcoal propulsion test (gut motility) in rat
Format: in vivo
MEASUREMENT SETUP: Study 1, dose 0.1 mg/kg guanfacine free base equivalents, oral
Where a name gives a salt, the structure may show the parent alone.
Kindly supply the reported % change in GI transit vs vehicle values for the records listed here.
Just the number please, in %, no unit attached.

Prompt line: Fill in the blank: the reported % change in GI transit vs vehicle of CC(C)[C@@H](N)C(=O)N[C@@H](CCC(=O)NC(=N)NC(=O)Cc1c(Cl)cccc1Cl)C(=O)O is ____.
Response line: −6

Prompt line: How about this compound: N=C(N)NC(=O)Cc1c(Cl)cccc1Cl [Guanfacine, monohydrochloride, reference compound]
Response line: −52

Prompt line: Also need CC(C)[C@H](NC(=O)CCCC(=O)NC(=N)NC(=O)Cc1c(Cl)cccc1Cl)C(=O)O [Compound 1, Guanfacine (Glutaryl-(S)-Valine) Amide] , thanks.
Response line: −9

###

ASSAY: Prodrug stability in simulated gastric fluid
MEASUREMENT SETUP: 37° C., pH 1.1, HPLC
Doc: threshold 90% (exclusive). Items with % prodrug remaining following incubation for 1 h in simulated gastric fluid pH 1.1 beneath it return TRUE; others return FALSE.

Prompt line: Below 90% on % prodrug remaining following incubation for 1 h in simulated gastric fluid pH 1.1? Entry N=C(NC(=O)Cc1c(Cl)cccc1Cl)NC(=O)OC[C@H](NC(=O)[C@@H]1CCC(=O)N1)C(=O)O [Compound 16]
Response line: TRUE

Prompt line: Continue with CC(C)(COC(=O)NC(=N)NC(=O)Cc1c(Cl)cccc1Cl)[C@@H](O)C(=O)NCCC(=O)O [Compound 68, Guanfacine Pantothenic acid Carbamate]
Response line: TRUE

Prompt line: Entry to check: N=C(NC(=O)Cc1c(Cl)cccc1Cl)NC(=O)OCCNC(=O)CC[C@H](N)C(=O)O [Compound 58]
Response line: FALSE

Prompt line: // repeat for CC(C)[C@H](N)C(=O)N[C@H](CCC(=O)NC(=N)NC(=O)Cc1c(Cl)cccc1Cl)C(=O)O [Compound 32] and report
Response line: FALSE

Prompt line: Subsequent entry: CC(C)[C@H](N)C(=O)N[C@@H](COC(=O)NC(=N)NC(=O)Cc1c(Cl)cccc1Cl)C(=O)O [Compound 17]
Response line: FALSE

Prompt line: // same read-out, input: CC(C)[C@@H]1N=C(NC(=O)Cc2c(Cl)cccc2Cl)NC1=O [Compound 35, Guanfacine-(S)-Valine Cyclic Adduct]
Response line: TRUE

Prompt line: Same thing, different molecule: CNCC(=O)N[C@@H](CCC(=O)NC(=N)NC(=O)Cc1c(Cl)cccc1Cl)C(=O)O [Compound 7]
Response line: TRUE

###

ASSAY: Pharmacokinetics in rat hepatic portal and tail veins after oral administration
Assay type: in vivo
MEASUREMENT SETUP: hepatic portal vein plasma, oral, 0.5 mg/kg (footnote *), read-out: Hepatic portal vein Prodrug Cmax
ASSAY ENDPOINT: Cmax (ng/mL)
Return type: number; implicit unit ng/mL.

Prompt line: Look up Cmax: CC(C)[C@H](NC(=O)CCCC(=O)NC(=N)NC(=O)Cc1c(Cl)cccc1Cl)C(=O)O [Compound 1, Guanfacine (Glutaryl-(S)-Valine) Amide]
Response line: 56.3

###

ASSAY: Comparative pharmacokinetic screening study in the monkey (relative Cmax of guanfacine)
MEASUREMENT SETUP: cynomolgus monkey, in vivo, po
Counter-ions that a name gives are not always drawn.
ASSAY ENDPOINT: bioavailability (%)
Use % as the unit, but write only the number.

Prompt line: So what's the measured bioavailability for this one? N=C(N)NC(=O)Cc1c(Cl)cccc1Cl [Guanfacine, monohydrochloride, reference compound]
Response line: 35

###

ASSAY: Prodrug stability in simulated intestinal fluid
MEASUREMENT SETUP: 37° C., pH 6.8, HPLC
Please respond with reported % prodrug remaining following incubation for 2 h in simulated intestinal fluid pH 6.8 for every item in the list.
Number only, in %; omit the unit.

Prompt line: Given the entry C[C@H]1N=C(NC(=O)Cc2c(Cl)cccc2Cl)NC1=O [Compound 51, Guanfacine-(R)-Alanine Cyclic Adduct] , report its measured % prodrug remaining following incubation for 2 h in simulated intestinal fluid pH 6.8.
Response line: 103

Prompt line: Follow-up entry: N=C(NC(=O)CC[C@H](NC(=O)[C@H](N)CO)C(=O)O)NC(=O)Cc1c(Cl)cccc1Cl
Response line: 89

Prompt line: CC(C)[C@@H]1N=C(NC(=O)Cc2c(Cl)cccc2Cl)NC1=O [Compound 35, Guanfacine-(S)-Valine Cyclic Adduct] ?
Response line: 108

Prompt line: Try the compound CNCC(=O)N[C@@H](CCOC(=O)NC(=N)NC(=O)Cc1c(Cl)cccc1Cl)C(=O)O
Response line: 101

###

I'd appreciate it if you could supply Ki values for the items below.
TESTED TARGET: UniProt P08913
Sequence (P08913 whole entry): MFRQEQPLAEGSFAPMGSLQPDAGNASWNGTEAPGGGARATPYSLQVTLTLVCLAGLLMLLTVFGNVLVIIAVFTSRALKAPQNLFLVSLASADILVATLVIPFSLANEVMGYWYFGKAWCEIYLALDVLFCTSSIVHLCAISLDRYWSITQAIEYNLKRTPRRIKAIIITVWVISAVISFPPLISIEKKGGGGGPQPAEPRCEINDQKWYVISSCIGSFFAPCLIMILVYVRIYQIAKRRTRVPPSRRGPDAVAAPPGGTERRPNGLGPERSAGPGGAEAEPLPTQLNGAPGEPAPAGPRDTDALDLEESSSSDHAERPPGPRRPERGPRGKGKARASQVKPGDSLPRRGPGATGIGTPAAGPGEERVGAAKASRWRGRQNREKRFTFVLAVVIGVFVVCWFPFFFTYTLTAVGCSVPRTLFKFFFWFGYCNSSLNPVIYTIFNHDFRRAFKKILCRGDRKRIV
ASSAY: α-2A adrenoceptor binding assay ([3H] RX821002 competition, recombinant CHO cells)
MEASUREMENT SETUP: [3H] RX821002 (1 nM)
Protocol: The activation of this receptor is responsible for its intended therapeutic effect. The binding assay methodology employed in this study followed that described by Langin et al. (Eur. J. Pharmacol. 167:95-104, 1989) and used human recombinant CHO cells expressing α-2 adrenoceptors. The competitive binding ligand was [3H] RX821002 (1 nM) which has a high affinity for the alpha-2A subtype.
Reply with just the number (in µM).

Prompt line: What value of Ki has been recorded for this entry: CC(C)[C@H](NC(=O)CCCC(=O)NC(=N)NC(=O)Cc1c(Cl)cccc1Cl)C(=O)O [Compound 1, Guanfacine (Glutaryl-(S)-Valine) Amide]
Response line: 7.2

Prompt line: Quick one: CC(C)[C@H](N)C(=O)NCCC(=O)NC(=N)NC(=O)Cc1c(Cl)cccc1Cl [Compound 2, Guanfacine (β-Alanine-(S)-Valine) Amide]
Response line: 1.2

Prompt line: Proceed to C[C@@H](N)C(=O)N[C@@H](CCC(=O)NC(=N)NC(=O)Cc1c(Cl)cccc1Cl)C(=O)O
Response line: 1.7

Prompt line: What do you have for CC(C)[C@@H](N)C(=O)N[C@@H](CCC(=O)NC(=N)NC(=O)Cc1c(Cl)cccc1Cl)C(=O)O ?
Response line: 1.6

Prompt line: Please give the result for CNCC(=O)N[C@@H](COC(=O)NC(=N)NC(=O)Cc1c(Cl)cccc1Cl)C(=O)O too.
Response line: 10

###

ASSAY: Prodrug stability in simulated gastric fluid
MEASUREMENT SETUP: 37° C., pH 1.1, HPLC
Label Yes when % prodrug remaining following incubation for 1 h in simulated gastric fluid pH 1.1 is strictly below 70%; otherwise label No.

Prompt line: Find out if reported % prodrug remaining following incubation for 1 h in simulated gastric fluid pH 1.1 for CNCC(=O)N[C@@H](COC(=O)NC(=N)NC(=O)Cc1c(Cl)cccc1Cl)C(=O)O [Compound 61] is less than 70%
Response line: No

Prompt line: Also, CC(C)[C@H](N)C(=O)NCCC(=O)NC(=N)NC(=O)Cc1c(Cl)cccc1Cl [Compound 2, Guanfacine (β-Alanine-(S)-Valine) Amide] please.
Response line: No

Prompt line: Now this one: N=C(NC(=O)CC[C@H](NC(=O)[C@H](N)CCCCN)C(=O)O)NC(=O)Cc1c(Cl)cccc1Cl [Compound 43]
Response line: Yes

Prompt line: Please give the result for N=C(NC(=O)Cc1c(Cl)cccc1Cl)NC(=O)Nc1ccc(C(=O)O)cc1 [Compound 53, Guanfacine PABA Urea] too.
Response line: No

Prompt line: Another compound to check: N=C(NC(=O)Cc1c(Cl)cccc1Cl)NC(=O)OCC[C@H](NC(=O)CCN)C(=O)O [Compound 67]
Response line: No

###

ASSAY: Prodrug stability in simulated gastric fluid
MEASUREMENT SETUP: 37° C., pH 1.1, HPLC
Give % prodrug remaining following incubation for 1 h in simulated gastric fluid pH 1.1 for every item shown.
Give the value; after it, write the unit.

Prompt line: Quick one: % prodrug remaining following incubation for 1 h in simulated gastric fluid pH 1.1 of NC(=O)CC[C@@H]1N=C(NC(=O)Cc2c(Cl)cccc2Cl)NC1=O [Compound 38, Guanfacine-(S)-Glutamine Cyclic Adduct] ?
Response line: 70%

Prompt line: Same again, this time with CC(C)(CO)[C@@H](O)C(=O)NCCCOC(=O)NC(=N)NC(=O)Cc1c(Cl)cccc1Cl [Compound 69, Guanfacine Panthenol Carbamate]
Response line: 85%

Prompt line: Further, for C[C@@H](N)C(=O)N[C@@H](CCC(=O)NC(=N)NC(=O)Cc1c(Cl)cccc1Cl)C(=O)O [Compound 41] ?
Response line: 70%

Prompt line: Also, CC(C)[C@@H](NC(=O)c1ccc(N)cc1)C(=O)NC(=N)NC(=O)Cc1c(Cl)cccc1Cl [Compound 55, Guanfacine ((R)-Valine-PABA) Amide] please.
Response line: 65%

Prompt line: Try CC(C)[C@@H](N)C(=O)NCCCC(=O)NC(=N)NC(=O)Cc1c(Cl)cccc1Cl [Compound 22, Guanfacine (GABA-(R)-Valine) Amide] next.
Response line: 106%

Prompt line: Please answer likewise for C[C@@H]1N=C(NC(=O)Cc2c(Cl)cccc2Cl)NC1=O [Compound 39, Guanfacine-(S)-AlanineCyclic Adduct]
Response line: 89%
